FYI, the data here is from patent EP4696714A1.

- TARGET: T1, human TF extracellular domain protein (TF-ECD, Met 1-Glu 251) (human, UniProt P13726 33-251)
- T1 construct: range 1-251; also called human TF-ECD; not shown: His tag (protein captured on an NTA sensor as 'FDYKSD-01-His')
- EXPERIMENT DESCRIPTION: ForteBio OCTET R2; His-tagged antigen on NTA sensor, nanobody-Fc 25-1.56 nM in solution, 25°C
pKd: −log10 of the molar value.

[
  {
    "BINDER": "5-C12-FC1 (chimeric nanobody: 5-C12 VHH fused with human Fc mutant fragment FC1) (Fc fusion, built from the VHH and FC1) QVQLVESGGGLAQAGGSLRLSCAGSGRTFSTDAMGWFRQAPGKEREFVAAINWSGGSTYYADSVKGRFTISRDNAKNTVYLQMNSVKPEDTAVYYCVADSLLALLDGSRGGPGTDSDSWGQGTQVTVSSEPKSSDKTHTCPPCPAPEFEGGPSVFLFPPKPKDTLMISRTPEVTCVVVDVSHEDPEVKFNWYVDGVEVHNAKTKPREEQYNSTYRVVSVLTVLHQDWLNGKEYKCKVSNKALPASIEKTISKAKGQPREPQVYTLPPSRDELTKNQVSLTCLVKGFYPSDIAVEWESNGQPENNYKTTPPVLDSDGSFFLYSKLTVDKSRWQQGNVFSCSVMHEALHNHYTQKSLSLSPGK",
    "pKd": 12.00
  },
  {
    "BINDER": "F1-A01-FC1 (chimeric nanobody: F1-A01 VHH fused with human Fc mutant fragment FC1) (Fc fusion, it is built from the VHH and FC1 as in 4-A02-FC1) EVQLVESGGGLVQAGGSLRLSCAASGRAFSAYAMGWFRQAPGKEREFVAAISWSGGSTYYADSVRGRFTISRDNTKNTVYLQMNSLKPEDTAVYYCNADSLLSLLDGSRGGPGTDSGSWGQGTQVTVSSEPKSSDKTHTCPPCPAPEFEGGPSVFLFPPKPKDTLMISRTPEVTCVVVDVSHEDPEVKFNWYVDGVEVHNAKTKPREEQYNSTYRVVSVLTVLHQDWLNGKEYKCKVSNKALPASIEKTISKAKGQPREPQVYTLPPSRDELTKNQVSLTCLVKGFYPSDIAVEWESNGQPENNYKTTPPVLDSDGSFFLYSKLTVDKSRWQQGNVFSCSVMHEALHNHYTQKSLSLSPGK",
    "pKd": 8.36
  }
]
